Biological target: T1, cynomolgus IL-18BP (cynomolgus monkey)
T1 construct: Generated in-house; also called cyIL-18BP; cyno IL-18BP
T1 chain: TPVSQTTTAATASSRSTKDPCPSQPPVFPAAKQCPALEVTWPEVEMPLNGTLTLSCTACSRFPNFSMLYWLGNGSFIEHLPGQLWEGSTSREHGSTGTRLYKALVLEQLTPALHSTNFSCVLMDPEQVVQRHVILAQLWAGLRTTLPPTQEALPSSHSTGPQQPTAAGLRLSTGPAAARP
Assay: BLI single-concentration screen, apparent KD
Entries annotated with measured Kd
Form entry: value (nM) — number only.

| Binder | Reported result |
| --- | --- |
| heavy chain library variant C34P (antibody, V domains shown) VH: QVQLQESGPGLVKPSQTLSLTCTVSGYSITSDYNPHWIRQPPGKGLEWIGYIHYSGSTNYNPSLKSRVTISRDTSKNQFSLKLSSVTAADTAVYYCARNYGSIYVNYFDYWGQGTLVTVSS VL: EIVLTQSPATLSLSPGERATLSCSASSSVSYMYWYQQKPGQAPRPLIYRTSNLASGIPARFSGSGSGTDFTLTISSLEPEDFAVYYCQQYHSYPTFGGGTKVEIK | 9.8 |

Q: Return reported Kd; argument: heavy chain library variant C34E (antibody, V domains shown) VH: QVQLQESGPGLVKPSQTLSLTCTVSGYSITSDYNEHWIRQPPGKGLEWIGYIHYSGSTNYNPSLKSRVTISRDTSKNQFSLKLSSVTAADTAVYYCARNYGSIYVNYFDYWGQGTLVTVSS VL: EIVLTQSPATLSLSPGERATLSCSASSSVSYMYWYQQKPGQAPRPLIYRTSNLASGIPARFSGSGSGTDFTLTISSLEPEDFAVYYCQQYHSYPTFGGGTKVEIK
A: 0.5
